test system: TK-10; assay: Cytotoxicity against human TK10 cells after 48 hrs by sulforhodamine B assay; assay type: functional; conditions: Homo sapiens, TK-10, 48 h
metric: GI50 (µM)
Respond with the bare value in µM.

Worked cases, GI50 given:
> print(dat)
                                 itemsmiles  target  metric  resultnumber
1  Clc1ccc2c(NCCNCCNCCNc3ccnc4cc(Cl)ccc34)ccnc2c1   TK-10    GI50          5.89
2  Clc1ccc2c(NCCCNCCNCCCNc3ccnc4cc(Cl)ccc34)ccnc2c1   TK-10    GI50           2.1
3  CN(CCCNc1ccnc2cc(Cl)ccc12)CCCNc1ccnc2cc(Cl)ccc12   TK-10    GI50          0.54

Task item: Recorded GI50 for Clc1ccc2c(NCCCNCCNc3ccnc4cc(Cl)ccc34)ccnc2c1 , please?
Reply: 1.23

Data credit: ChEMBL document CHEMBL2062520
